Reported Plasma, 37 °C %rem. at 2h (Table S23) values are given for each entry in this list.
measurement_description: Plasma stability assay at 37 °C via LC-MS/MS, human plasma
Type: in vitro ADME
measurement_setup: 2 h
test_readout: Plasma, 37 °C %rem. at 2h (Table S23) (%)

INSERT INTO measurements (molecule, data_value) VALUES
  ('CNC1(CN(C)C(=O)O/N=C(\C)[C@H]2CC[C@H]3[C@@H]4CCC5=CC(=O)CC[C@]5(C)[C@H]4CC[C@]23C)CCC1 [20t]', 4),
  ('C/C(=N\OC(=O)N(C)C[C@@H]1C[C@H](N(C)C)CN1)[C@H]1CC[C@H]2[C@@H]3CCC4=CC(=O)CC[C@]4(C)[C@H]3CC[C@]12C [20u]', 17);

###

measurement_description: Stability in acetate buffer pH 5.0 at room temperature via HPLC (UV)
Type: physicochemical
measurement_setup: pH 5, acetate buffer pH 5.0, rt, read-out: t½: pH 5.0, rt (Table S23) (converted)
test_readout: half-life at 1 mg/mL

INSERT INTO results (molecule, data_value) VALUES
  ('CNCCN(CCN1CCCC1)C(=O)O/N=C(\C)[C@H]1CC[C@H]2[C@@H]3CCC4=CC(=O)CC[C@]4(C)[C@H]3CC[C@]12C.O=C(O)C(F)(F)F [20h]', '105 h'),
  ('CNCCN(C(=O)O/N=C(\C)[C@H]1CC[C@H]2[C@@H]3CCC4=CC(=O)CC[C@]4(C)[C@H]3CC[C@]12C)C(C)C.O=C(O)C(F)(F)F [20c]', '> 168 h'),
  ('CNCCN(CCN(C)C)C(=O)O/N=C(\C)[C@H]1CC[C@H]2[C@@H]3CCC4=CC(=O)CC[C@]4(C)[C@H]3CC[C@]12C [20g]', '75.8 h'),
  ('C/C(=N\OC(=O)N(C)CC[C@@H]1CCCN1)[C@H]1CC[C@H]2[C@@H]3CCC4=CC(=O)CC[C@]4(C)[C@H]3CC[C@]12C.O=C(O)C(F)(F)F [20n]', '> 168 h'),
  ('CNCCN(C)C(=O)O/N=C(\C)[C@H]1CC[C@H]2[C@@H]3CCC4=CC(=O)CC[C@]4(C)[C@H]3CC[C@]12C [20a]', '> 168 h'),
  ('CNC1(CN(C)C(=O)O/N=C(\C)[C@H]2CC[C@H]3[C@@H]4CCC5=CC(=O)CC[C@]5(C)[C@H]4CC[C@]23C)CCC1 [20t]', '> 168 h');

###

measurement_description: Plasma stability assay at 37 °C via LC-MS/MS, human plasma;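 also: prodrugs at 3 µM incubated in human plasma at 37 °C, intact prodrug quantified by LC-MS/MS over time, values are means of duplicate runs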
Format: in vitro ADME
measurement_setup: human, plasma, LC-MS/MS, read-out: Half-life (t½) Plasma 37°C (converted)
Hi! Could you tag entries with half-life at 3 µM below 40 min as 1, and those at or above as 0? Much appreciated.

INSERT INTO measurements (compound, assigned_class) VALUES
  ('CNCCN(C(=O)O/N=C(\C)[C@H]1CC[C@H]2[C@@H]3CCC4C[C@H](O)CC[C@]4(C)[C@H]3CC[C@]12C)C(C)C.O=C(O)C(F)(F)F (stereo partly drawn) [21c]', 1),
  ('CNCCN(C)C(=O)O/N=C(\C)[C@H]1CC[C@H]2[C@@H]3CCC4C[C@H](O)CC[C@]4(C)[C@H]3CC[C@]12C.O=C(O)C(F)(F)F (stereo partly drawn) [21a]', 0),
  ('C/C(=N\OC(=O)N(C)C[C@@H]1CCCN1)[C@H]1CC[C@H]2[C@@H]3CCC4C[C@H](O)CC[C@]4(C)[C@H]3CC[C@]12C (stereo partly drawn) [21l]', 1),
  ('CNCCN(C(=O)O/N=C(\C)[C@H]1CC[C@H]2[C@@H]3CCC4C[C@H](O)CC[C@]4(C)[C@H]3CC[C@]12C)C1CCC1.O=C(O)C(F)(F)F (stereo partly drawn) [21d]', 0),
  ('C/C(=N\OC(=O)N(C)C[C@@H]1CCN1)[C@H]1CC[C@H]2[C@@H]3CCC4=CC(=O)CC[C@]4(C)[C@H]3CC[C@]12C [20o]', 1),
  ('C/C(=N\OC(=O)N(C)C[C@@H]1CC2(CC2)CN1)[C@H]1CC[C@H]2[C@@H]3CCC4=CC(=O)CC[C@]4(C)[C@H]3CC[C@]12C [20q]', 1);

From: paper PMC12516379
